biological target: Cytochrome P450 2D6 (Homo sapiens) (UniProt P10635); assay: Cytochrome panel assay with activity outcomes; settings: recombinant CYP, pro-luciferin dealkylation, luminescence, p450-cyp2d6; series mostly up to 57.1 µM
Sequence (P10635 whole entry, looked up): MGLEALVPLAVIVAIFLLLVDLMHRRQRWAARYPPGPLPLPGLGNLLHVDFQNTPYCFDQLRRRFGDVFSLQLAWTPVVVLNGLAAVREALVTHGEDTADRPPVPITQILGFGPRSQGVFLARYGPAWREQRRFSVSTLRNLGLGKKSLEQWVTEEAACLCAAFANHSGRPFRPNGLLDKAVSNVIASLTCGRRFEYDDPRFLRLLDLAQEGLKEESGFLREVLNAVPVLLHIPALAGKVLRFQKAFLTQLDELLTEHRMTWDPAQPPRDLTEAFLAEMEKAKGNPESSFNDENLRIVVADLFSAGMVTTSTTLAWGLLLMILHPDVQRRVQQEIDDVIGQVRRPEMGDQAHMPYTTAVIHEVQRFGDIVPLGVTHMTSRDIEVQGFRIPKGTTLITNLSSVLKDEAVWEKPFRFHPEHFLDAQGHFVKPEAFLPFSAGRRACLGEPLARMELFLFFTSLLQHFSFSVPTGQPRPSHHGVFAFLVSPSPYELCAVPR
The whole screen tested about 16,000 compounds, of which about 2,600 (16%) were called active. Roughly 20% stayed inconclusive and do not appear here. A selection follows.
value.type: AC50

Some solved entries appear below for comparison.
CC(=O)c1cccc(NC(=O)Oc2ccccc2)c1 ... inactive
Fc1ccc(Nc2nc(-c3ccoc3)nc3ccccc23)cc1 ... inactive
COc1ccc(CC(=O)Nc2cccc(/C(C)=N/NC(=O)c3cccc([N+](=O)[O-])c3)c2)cc1 ... inactive
CCN1CCN(c2nc(-c3ccccn3)nc3ccccc23)CC1 ... inactive
CC1CCCCN1c1nc(-c2ccncc2)nc2ccccc12 (stereo unspecified) ... 7.94 µM (active)
Cc1onc(C(=O)/C=C/N(C)C)c1C(=O)Nc1nccs1 ... inactive

Enquiry: Which AC50 is reported with Cytochrome P450 2D6 (Homo sapiens) (UniProt P10635) for this entry: `COc1cccc(N(CC(=O)Nc2cccc(C(C)=O)c2)S(C)(=O)=O)c1` ?
Return: 0.141 µM (active)

Enquiry: Which AC50 is reported with Cytochrome P450 2D6 (Homo sapiens) (UniProt P10635) for this entry: CCSc1nc2c(c(=O)[nH]1)C(c1ccccn1)C1=C(CC(C)(C)CC1=O)N2 (stereo unspecified) ?
Return: inactive

Enquiry: Which AC50 is reported with Cytochrome P450 2D6 (Homo sapiens) (UniProt P10635) for this entry: `Cc1cccc(CNc2nc(-c3ccoc3)nc3ccccc23)c1` ?
Return: 10 µM (active)

Enquiry: Which AC50 is reported with Cytochrome P450 2D6 (Homo sapiens) (UniProt P10635) for this entry: `c1ccc(CNc2nc(-c3ccoc3)nc3ccccc23)cc1` ?
Return: 10 µM (active)

Enquiry: Which AC50 is reported with Cytochrome P450 2D6 (Homo sapiens) (UniProt P10635) for this entry: CC1CCCCN1c1cc(C#N)c(C#N)cc1[N+](=O)[O-] (stereo unspecified) ?
Return: inactive
